- TEST_SYSTEM: Transcriptional activator Myb (Homo sapiens)
- ASSAY_METHOD_TEXT: ATG_Myb_CIS: Attagene CIS-FACTORIAL HepG2 Assay for human Myeloblastosis (Myb) Proto-Oncogene Transcription Factor (AID 2282986)
- CONDITION_SUMMARY: HepG2 Attagene CIS-FACTORIAL Myb reporter transcription; actives raise or lower the signal
Calls of active or inactive are those of the source. The calls were made as follows: active = hit-call score of the fitted dose curve at least 0.9, where 1 is the maximum; inactive = score below 0.9.
Outcome codes: active, inactive

- COMPOUND: "Cc1ccccc1CCl"
  CATEGORY_LABEL: "inactive"
- COMPOUND: "CCC(Br)(CC)C(=O)NC(N)=O"
  CATEGORY_LABEL: "inactive"
- COMPOUND: "O=C(NCNC(=O)NC1C(=O)NC(=O)N1CO)NC1C(=O)NC(=O)N1CO (stereo not drawn)"
  CATEGORY_LABEL: "inactive"
- COMPOUND: "O=[N+]([O-])c1ccc(Cl)cc1"
  CATEGORY_LABEL: "inactive"
- COMPOUND: "CCCCCc1cc(O)cc(O)c1"
  CATEGORY_LABEL: "inactive"
- COMPOUND: "O=C(O)COc1ccccc1"
  CATEGORY_LABEL: "inactive"
- COMPOUND: "Nc1c(Cl)c(Cl)c(Cl)c(Cl)c1Cl"
  CATEGORY_LABEL: "inactive"
- COMPOUND: "CCOC(=O)NC(=S)Nc1ccccc1NC(=S)NC(=O)OCC"
  CATEGORY_LABEL: "inactive"
- COMPOUND: "CCCCCCCCCCCCCCCC[N+](C)(C)C"
  CATEGORY_LABEL: "active"
- COMPOUND: "Clc1ccc(-c2ccccc2)cc1"
  CATEGORY_LABEL: "inactive"
- COMPOUND: "CC(C)(Cl)Cl"
  CATEGORY_LABEL: "inactive"
- COMPOUND: "N#CC(c1ccccc1)c1ccccc1"
  CATEGORY_LABEL: "inactive"
- COMPOUND: "C=C(Cl)Cl"
  CATEGORY_LABEL: "inactive"

###

- ASSAY_METHOD_TEXT: CCTE_Mundy_HCI_Cortical_NOG_BPCount: CCTE's Neurite Outgrowth Assay in rat cortical cells for Branch Point Count, Mundy Lab (AID 2284237)
The source made the active and inactive calls. Rule for the calls: active = hit-call score of the fitted dose curve at least 0.9, where 1 is the maximum; inactive = score below 0.9.
Outcome codes: label 1 (active), label 0 (inactive)

- STRUCTURE_AS_SMILES: "CC(=O)[O-].[Tl+]"
  CATEGORY_LABEL: "label 1"
- STRUCTURE_AS_SMILES: "[Cd+2].[Cl-].[Cl-]"
  CATEGORY_LABEL: "label 1"
- STRUCTURE_AS_SMILES: "COP(=O)(OC)SCN1C(=O)c2ccccc2C1=O"
  CATEGORY_LABEL: "label 0"

###

- ASSAY_METHOD_TEXT: ATG_CRE_CIS: Attagene CIS-FACTORIAL HepG2 Assay for human cAMP Responsive Element (CRE) binding protein 3 (AID 2282926)
- CONDITION_SUMMARY: HepG2 CRE cis-reporter, Attagene multiplexed mRNA; actives raise or lower the signal
The source made the active and inactive calls. Rule for the calls: active = hit-call score of the fitted dose curve at least 0.9, where 1 is the maximum; inactive = score below 0.9.
Outcome codes: t = active, f = inactive

- COMPOUND: "c1ccc(P(c2ccccc2)c2ccccc2)cc1"
  CATEGORY_LABEL: "f"
- COMPOUND: "C[C@]12CC[C@H](O)C[C@H]1CC[C@@H]1[C@@H]2C[C@@H](O)[C@]2(C)[C@@H](C3=CC(=O)OC3)CC[C@]12O"
  CATEGORY_LABEL: "t"
- COMPOUND: "CN1C(=O)CCS(=O)(=O)C1c1ccc(Cl)cc1 (stereo not drawn)"
  CATEGORY_LABEL: "f"
